Test system: HCT-116 colon
Assay: NCI tumour cell line growth inhibition, 48 h
Assay Endpoint: TGI

Which TGI value is on record for Fc1ccc(-c2nn3ccccc3c2-c2ccncc2)cc1 ?
> 25 µM

Which TGI value is on record for c1ccc(Oc2ccc(Nc3ncc(-c4ccccc4)o3)cc2)cc1 ?
> 25 µM

Which TGI value is on record for Oc1ccc2ccccc2c1C=NCc1c(O)ccc2ccccc12 ?
> 100 µM

Which TGI value is on record for COc1ccc(-c2csc(Cc3nc4c(Br)cc(Br)cc4c(=O)n3-c3ccc(OC)cc3)n2)cc1 ?
> 100 µM

Which TGI value is on record for CCOC(=O)c1c(N2CCCC2)[nH]c(=O)c(C(c2ccc(Cl)c([N+](=O)[O-])c2)c2c(O)c(C(=O)OCC)c(N3CCCC3)[nH]c2=O)c1O ?
> 100 µM

Which TGI value is on record for CN1C(=O)C(C(=O)Nc2ccccn2)C2C[C@@]1(C)Oc1ccccc12 (stereo partly specified) ?
> 100 µM

* * *

Test system: M14 melanoma
Assay: NCI tumour cell line growth inhibition, 48 h
Listing of entries alongside the reported TGI.

As a guide, the following entries are already answered.
CCOC(=O)CCC(NC(=O)c1ccc(Oc2nc3c(N)cc(C(F)(F)F)cc3nc2-c2ccccc2)cc1)C(=O)OCC (centres undefined) = > 100 µM
N#C/C(=C1\OC(=N)C(c2ccccc2)C1=O)c1ccccc1 (centres undefined) = > 59.5 µM
Cc1nc2sc3c(N)ncnc3c2c(C)c1C = > 25 µM

API: the following record is the query input.
Which TGI value is on record for CCN(CC)C(=S)SCC(=O)Nc1nc2c(s1)CCCC2 ?
> 100 µM

* * *

Tested on: A549 NSCLC
Assay: NCI tumour cell line growth inhibition, 48 h
Assay Endpoint: TGI

As a guide, the following entries are already answered.
C=CCNC1=C2C[C@@H](C)C[C@H](OC)[C@H](O)[C@@H](C)/C=C(\C)[C@H](OC(N)=O)[C@@H](OC)/C=C\C=C(/C)C(=O)NC(=CC1=O)C2=O = 17.8 µM
COC(=O)CN1C(=O)C2(C(=O)OC)OC1(c1ccc([N+](=O)[O-])cc1)C1C(=O)N(c3ccccc3)C(=O)C12 (configuration not stated) = > 100 µM
CCN1C(=O)N(CC)C2C1NN=c1s/c(=C3\C(=O)N(C4CCCC4)c4ccccc43)c(=O)n12 (configuration not stated) = > 100 µM

Requested read-out TGI, target or system A549 NSCLC, entry Nc1cccc(OCC2CCCN3CCCCC23)c1 (configuration not stated)
45.1 µM

Requested read-out TGI, target or system A549 NSCLC, entry NC(CCP(=O)(O)O)C(=O)O (configuration not stated)
> 100 µM

Requested read-out TGI, target or system A549 NSCLC, entry CCN(CC)C(=S)SCC(=O)Nc1nc2c(s1)CCCC2
> 100 µM

Requested read-out TGI, target or system A549 NSCLC, entry Cc1cn(Cc2cccc(C3=NCCCN3)c2)c(=O)n(Cc2cccc(C3=NCCCN3)c2)c1=O
> 100 µM

* * *

Listing of entries alongside the reported TGI.
System: HCT-116 colon
Assay: NCI tumour cell line growth inhibition, 48 h

COc1ccc(OC)c(NC(=O)C(=O)CC(=O)c2sc(-n3nc(-c4ccccc4)cc3-c3ccccc3)nc2C)c1 = > 100 µM
CC(=O)Nc1ccc(S(=O)(=O)N=S(C)C)cc1 = > 100 µM

API: the following record is the query input.
Which TGI value is on record for COc1cc2cc3c4c(cc(OC)c(OC)c4c2cc1OC)CCN3C ?
> 25.7 µM

* * *

Test system: SK-OV-3 ovarian
Experiment: NCI tumour cell line growth inhibition, 48 h
Listing of entries alongside the reported TGI.

As a guide, the following entries are already answered.
CC(=O)Nc1ccc(S(=O)(=O)N=S(C)C)cc1 = > 100 µM
C[P+](c1ccccc1)(c1ccc(Cl)cc1)c1ccc(Cl)cc1 = > 100 µM
COc1ccc(CNc2nc(NCc3ccc(OC)cc3)nc(NC3CCCC3)n2)cc1 = > 100 µM
CC(=O)c1ccccc1NC(=O)C(=O)C(C(=O)c1ccccc1-c1ccccc1)C1OC(=O)c2ccccc21 (stereo not drawn) = > 100 µM
COC(=O)c1cc(O)c(O)c(O)c1-c1c(O)c(O)c(O)c(SC[C@H](NC(=O)OCc2ccccc2)C(=O)OCc2ccccc2)c1C(=O)OC = > 100 µM
CCOC(=O)c1[nH]c2cc(OC)c(OC)cc2c1CN(C)C = > 100 µM
COc1ccc(-c2cn(-c3ccc(OC)c(OC)c3)c(=O)[nH]2)cc1 = > 100 µM

Which TGI value is on record for CN(/N=C/c1ccccn1)C1=NCCCN1 ?
> 100 µM

* * *

System: HOP-92 NSCLC
Assay: NCI tumour cell line growth inhibition, 48 h
Listing of entries alongside the reported TGI.

As a guide, the following entries are already answered.
COC1=C2CC(C)CC(OC)C(OC(=O)CN)[C@H](C)/C=C(\C)C(OC(N)=O)C(OC)/C=C\C=C(/C)C(=O)NC(=CC1=O)C2=O (some centres undefined) = 1.27 µM
COc1ccc2c(O)c(/C=C3\N=Nc4ncccc43)oc2c1C[C@@H]1CCNC[C@H]1F = 9.21 µM
N#CC1(C#N)C=CC(=C2OCC3CCCN23)C=C1 (centres undefined) = > 100 µM
C=CCOCCC(CC=C)C(=O)CC(=O)OC (centres undefined) = > 100 µM
CC(C)(C)[C@H]1CO[C@]2(c3ccccc3)[C@@H]3C[C@@H]3C(=O)N12 = > 100 µM

Which TGI value is on record for CN(C)CCCNC(=O)c1cc(NS(=O)(=O)c2ccc3c(c2)C(=O)c2ccccc2C3=O)cn1C ?
> 100 µM

Which TGI value is on record for NCCCNc1nc2ccccc2c2c(=O)c3cccc(Cl)c3sc12 ?
2.63 µM

Which TGI value is on record for C=CCCCN1CCCC(C)C1=S (centres undefined) ?
> 100 µM

Which TGI value is on record for CO[C@@]12C[C@@H](C)[C@]34O[C@H]3C[C@]3(C)O[C@]43CC1=C(C)C(=O)O2 ?
> 100 µM

* * *

Listing of entries alongside the reported TGI.
Test system: NCI-H522 lung
Assay: NCI tumour cell line growth inhibition, 48 h

O=C(N/C(=C\c1ccccc1O)c1nc2ccccc2[nH]1)c1ccccc1 = > 100 µM
CCOC(=O)C1C(c2ccc(OC)cc2)c2c([nH][nH]c2=O)CC1(C)O (configuration not stated) = > 100 µM
COc1cc2c(c(OC)c1OC)-c1ccc(SC)c(=O)cc1[C@@H](NC(=O)C(F)(F)F)CC2 = < 0.01 µM
COC(=O)Cc1c([C@H]2[C@H](CC(=O)OC)c3ccccc3N2S(=O)(=O)c2ccc(C)cc2)[nH]c2ccccc12 = > 100 µM
OCCCCn1cc(Cn2ncc3c(NCc4ccccc4)ncnc32)nn1 = > 100 µM
C=CCOCn1cc(F)c(=O)[nH]c1=O = > 100 µM
COc1cc([N+](=O)[O-])c(S(=O)(=O)O)cc1-n1nc(C(=O)Nc2ccccc2)n[n+]1-c1cc(S(=O)(=O)[O-])c([N+](=O)[O-])cc1OC = > 100 µM
Fc1ccc(-c2nn3ccccc3c2-c2ccncc2)cc1 = > 25 µM

Requested read-out TGI, target or system NCI-H522 lung, entry Cc1ccc(/C=C/C(=O)c2sc(-n3nc(-c4ccccc4)cc3-c3ccccc3)nc2C)cc1
> 100 µM

Requested read-out TGI, target or system NCI-H522 lung, entry CC(C)(C)[C@H]1CO[C@]2(c3ccccc3)[C@@H]3C[C@@H]3C(=O)N12
> 100 µM

Requested read-out TGI, target or system NCI-H522 lung, entry C[C@]12CC[C@H](O)CC1=CC[C@@H]1C2CC[C@]2(C)C(=O)NC(=O)CC12 (some centres not stated)
> 100 µM

Requested read-out TGI, target or system NCI-H522 lung, entry O=C1Cc2cc(CCn3cncn3)c(Cl)cc2N1
> 100 µM

* * *

Listing of entries alongside the reported TGI.
Tested on: HOP-62 NSCLC
Assay: NCI tumour cell line growth inhibition, 48 h

COc1ccc(S(=O)(=O)Nc2c(/C=C\c3cc(OC)c(OC)c(OC)c3)ccc(OC)c2O)cc1 = > 100 µM

Which TGI value is on record for O=S(=O)(O)c1ccc2c(N=Nc3ccc(S(=O)(=O)O)c4ccccc34)c(O)c(S(=O)(=O)O)cc2c1 ?
> 100 µM

Which TGI value is on record for Cc1nc2sc3c(N)ncnc3c2c(C)c1C ?
> 25 µM

* * *

Listing of entries alongside the reported TGI.
System: SF-295 CNS
Assay: NCI tumour cell line growth inhibition, 48 h

Cc1ccc(-c2nc(-c3nccc4ccccc34)oc2-c2ccccc2)cc1 = > 100 µM
CC1=CP(=O)(c2ccccc2)C=C(C)C1=C(Cl)Cl (stereo unspecified) = 34.6 µM

Which TGI value is on record for CCCCCCCCCCCCN=C(N)c1ccc(N2CCN(c3ccc(C(N)=NCCCCCCCCCCCC)cc3)CC2)cc1 ?
18.1 µM

Which TGI value is on record for c1ccc(Cn2c(-c3ccc(-c4ccccc4)cc3)cc3ccccc32)cc1 ?
> 100 µM

Which TGI value is on record for COC(=O)c1c(O)ccc2c1c1c(n2Cc2ccccc2OC)C(=O)c2ccccc2C1=O ?
63.6 µM

Which TGI value is on record for O=C(N=c1nc(NC(=O)c2ccccc2)ss1)c1ccccc1 ?
70.6 µM

Where do the numbers come from? From PubChem BioAssay (NCI).
